- Target System: Single-strand selective monofunctional uracil DNA glycosylase (Homo sapiens)
- Recorded Conditions: Compound Concentration 10.0 uM, Hit No
- Description: Inhibition of SMUG1 by quantifying inhibition of SMUG1-mediated cleavage and dissociation of quenched duplex DNA oligonucleotides, measured as fluorescence at 594 nm. To generate a functional strand incision and increase turn-over this assay is coupled to APE1.
# inhibition values compiled below
Measurement Label: inhibition

CO[C@H]1CC=C2CCN3CCC4=C(CC(=O)OC4)[C@]23C1; -2.5%
COc1cnccc1Nc1nc(-c2nn(Cc3c(F)cc(OCCO)cc3F)c3ccccc23)ncc1OC; 6.21%
O=C(Nc1ccccc1Br)N[C@@H]1CCN(c2ccc(C(F)(F)F)cn2)C1; 15%

====

- Target System: Single-strand selective monofunctional uracil DNA glycosylase (Homo sapiens);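 also: enzymatic SMUG1 assay coupled with APE1, reading fluorescence at 594 nm released when a quenched double-stranded DNA oligonucleotide substrate is cleaved and separated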
- Recorded Conditions: Compound Concentration 10.0 uM, Hit No
# inhibition values compiled below
Measurement Label: inhibition (%)

C[C@@H](O[C@H]1OCCN(Cc2n[nH]c(=O)[nH]2)[C@H]1c1ccc(F)cc1)c1cc(C(F)(F)F)cc(C(F)(F)F)c1; -5.17
N=C(N)NCCSC(=N)N; -6.96
Cc1c(F)cccc1[C@H]1COC(N)=N1; -8.55
O=C1NC(c2ccccn2)Sc2ccccc21 (stereo not drawn); 8.24
C[C@H](Cc1cc2c(c(C(N)=O)c1)N(CCCO)CC2)NCCOc1ccccc1OCC(F)(F)F; 1.13
CCCCCN1C(=O)C2(COc3cc4c(cc32)OCO4)c2ccccc21 (stereo not drawn); -6.34
Cc1c(C2=CCN(C(=O)N(C)C(C)C)CC2)nnn1-c1cccnc1F; 11.5
O=C1O[C@]2(CC[C@H](C(=O)Nc3ccn(-c4ccccc4F)n3)CC2)c2cnccc21; 3.16
CCOC(=O)c1ccc(CN(Cc2ccc(-c3cccc(S(C)(=O)=O)c3)cc2)S(=O)(=O)c2c(C)cc(C)cc2C)o1; 14.1
CCNC(=O)[C@H]1O[C@@H](n2cnc3c(N)ncnc32)[C@H](O)[C@@H]1O; -5.33
CCN1CCC[C@H]1CNC(=O)c1c(OC)ccc(Br)c1OC; -6.28
CC[C@H](NC(=O)c1c(C)c(-c2ccccc2)nc2ccccc12)c1ccccc1; -0.0333
CC(C)(C)OC(=O)N1CCCC1CNC1CCC(c2cc(F)ccc2F)(S(=O)(=O)c2ccc(Cl)cc2)CC1 (stereo not drawn); 19.7

====

- Target System: G/T mismatch-specific thymine DNA glycosylase (Homo sapiens) (UniProt Q13569);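 also: human TDG cleavage of quenched duplex DNA oligonucleotides coupled to APE1, strand release read as fluorescence at 594 nm, inhibition of TDG activity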
- Sequence (Q13569 whole entry): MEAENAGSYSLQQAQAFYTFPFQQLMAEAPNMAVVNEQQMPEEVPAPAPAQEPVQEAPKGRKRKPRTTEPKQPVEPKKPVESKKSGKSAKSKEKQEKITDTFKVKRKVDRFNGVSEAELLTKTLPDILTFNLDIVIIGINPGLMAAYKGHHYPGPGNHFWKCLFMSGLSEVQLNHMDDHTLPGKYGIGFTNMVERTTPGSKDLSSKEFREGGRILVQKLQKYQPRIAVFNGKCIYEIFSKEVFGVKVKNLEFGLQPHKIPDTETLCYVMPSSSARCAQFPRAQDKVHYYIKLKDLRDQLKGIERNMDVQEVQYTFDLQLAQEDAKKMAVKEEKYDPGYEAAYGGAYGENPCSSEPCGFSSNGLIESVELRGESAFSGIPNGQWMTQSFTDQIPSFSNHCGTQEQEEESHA
- Recorded Conditions: Compound Concentration 1.0 uM, Hit No
- Description: Inhibition of TDG by quantifying inhibition of TDG-mediated cleavage and dissociation of quenched duplex DNA oligonucleotides, measured as fluorescence at 594 nm. To generate a functional strand incision and increase turn-over this assay is coupled to APE1.
# inhibition values compiled below
Measurement Label: inhibition (%)

Cc1ccc(C(=O)Nc2cccc(C(F)(F)F)c2)cc1Nc1nc(-c2cccnc2)nc2c1cnn2C; 48.5
CS(=O)(=O)NCC[C@H](NC(=O)c1cncc2c1cnn2-c1ccc(F)cc1)c1ccnc(S(C)(=O)=O)c1; 50.4
Cc1cc(C)c(-n2ccn3nc(-c4cccnc4)cc23)cc1NC(=O)c1cc(C#N)cc(S(F)(F)(F)(F)F)c1; 50.8
C[C@H](NC(=O)c1cn(C2(C#N)CC2)cn1)C(=O)Nc1nc(-c2cccc(-c3ccn(C)n3)c2)cs1; 51.4
COc1ccc2cc(OCC3(C(=O)O)CN(C(=O)c4ccc(F)cc4)C3)ccc2c1; 50.2
